Target: Tyrosine-protein kinase HCK (Homo sapiens)
Assay: retest of Hck:Nef kinase inhibitor hits, confirmation, biochemical, Z-Lyte FRET, 384-well, p-Tyr peptide counterscreen (AID 463188)
Details: Recombinant Hck-YEEI:Nef, Z-Lyte FRET kinase assay; at 10 µM; hits give high values
About 360 (28%) of roughly 1,300 compounds were called active. Only a sample is shown.
test-readout: inhibition

> print(dat)
                                    compound             result
 1       O=C(CSc1cccc2cccnc12)N/N=C/c1cccnc1   36.9% (inactive)
 2  Cc1ccc(S(=O)(=O)c2c(N)n(C)c3nc4ccccc4nc23)cc1   51.3% (inactive)
 3  O=[N+]([O-])c1cccc(Nc2c3ccccc3nc3ccccc23)c1   9.19% (inactive)
 4  Clc1ccc2c(c1)C1=C(C(c3ccncc3)O2)C(c2ccc(Br)cc2)n2ncnc2N1 (stereo not given)     92.8% (active)
 5  Cc1cc(C)c2nc(-c3cccnc3)cc(C(=O)Nc3ccc(S(=O)(=O)Nc4onc(C)c4C)cc3)c2c1   40.5% (inactive)
 6  COC(=O)c1ccc(OCC(O)CN(CCO)CC(O)Cn2ccc3ccccc32)cc1 (stereo not given)  -1.67% (inactive)
 7  OC(c1nnc(-c2ccccc2)o1)c1cccs1 (stereo not given)   19.9% (inactive)
 8  O=C(Nc1ccncc1)c1cc(-c2ccccn2)nc2ccc(Br)cc12     76.4% (active)
 9  N#Cc1c(-c2cccs2)nc(SCC(=O)c2ccc(Br)cc2)[nH]c1=O     54.2% (active)
10  Cc1ncc(CC(=O)n2cc(C(=O)c3cc(Cl)ccc3O)cn2)s1       75% (active)
